Quick reference for Percent Inhibition (%) against Hypertensive Reaction by Angiotensin I After 20 min. among some molecules
Test system: Hypertensive Reaction by Angiotensin I
Assay: Effect against hypertensive activity of angiotensin I in rats after oral administration
Format: in vivo, Male rats (Sprague-Dawley)
Conditions: 13.8 µM/kg orally; 20 min after administration; angiotensin I 300 ng/kg i.v.; corrected by angiotensin II reaction
measurement kind: Percent Inhibition (%) against Hypertensive Reaction by Angiotensin I After 20 min.

>  <molecule>
C[C@H](NC(CCc1ccccc1)C(=O)O)C(=O)N(CC(=O)O)C1CCCC1 (stereo partly shown)

>  <observed>
58

$$$$
>  <molecule>
CCOC(=O)C(CCc1ccccc1)N[C@@H](C)C(=O)N(CC(=O)O)C1CCCCC1.Cl (stereo partly shown)

>  <observed>
82

$$$$
>  <molecule>
CCOC(=O)C(CCc1ccccc1)N[C@@H](C)C(=O)N(CC(=O)O)C1CCCC1.Cl (stereo partly shown)

>  <observed>
92

$$$$
>  <molecule>
CCCCOC(=O)[C@H](CCc1ccccc1)N[C@@H](C)C(=O)N(CC(=O)O)C1CCCC1.Cl

>  <observed>
95

$$$$

###

Quick reference for inhibition at 10 µM among some compounds
Biological target: Angiotensin I Converting Enzyme (ACE) (Homo sapiens)
Sequence (P12821 30-1306, species assumed): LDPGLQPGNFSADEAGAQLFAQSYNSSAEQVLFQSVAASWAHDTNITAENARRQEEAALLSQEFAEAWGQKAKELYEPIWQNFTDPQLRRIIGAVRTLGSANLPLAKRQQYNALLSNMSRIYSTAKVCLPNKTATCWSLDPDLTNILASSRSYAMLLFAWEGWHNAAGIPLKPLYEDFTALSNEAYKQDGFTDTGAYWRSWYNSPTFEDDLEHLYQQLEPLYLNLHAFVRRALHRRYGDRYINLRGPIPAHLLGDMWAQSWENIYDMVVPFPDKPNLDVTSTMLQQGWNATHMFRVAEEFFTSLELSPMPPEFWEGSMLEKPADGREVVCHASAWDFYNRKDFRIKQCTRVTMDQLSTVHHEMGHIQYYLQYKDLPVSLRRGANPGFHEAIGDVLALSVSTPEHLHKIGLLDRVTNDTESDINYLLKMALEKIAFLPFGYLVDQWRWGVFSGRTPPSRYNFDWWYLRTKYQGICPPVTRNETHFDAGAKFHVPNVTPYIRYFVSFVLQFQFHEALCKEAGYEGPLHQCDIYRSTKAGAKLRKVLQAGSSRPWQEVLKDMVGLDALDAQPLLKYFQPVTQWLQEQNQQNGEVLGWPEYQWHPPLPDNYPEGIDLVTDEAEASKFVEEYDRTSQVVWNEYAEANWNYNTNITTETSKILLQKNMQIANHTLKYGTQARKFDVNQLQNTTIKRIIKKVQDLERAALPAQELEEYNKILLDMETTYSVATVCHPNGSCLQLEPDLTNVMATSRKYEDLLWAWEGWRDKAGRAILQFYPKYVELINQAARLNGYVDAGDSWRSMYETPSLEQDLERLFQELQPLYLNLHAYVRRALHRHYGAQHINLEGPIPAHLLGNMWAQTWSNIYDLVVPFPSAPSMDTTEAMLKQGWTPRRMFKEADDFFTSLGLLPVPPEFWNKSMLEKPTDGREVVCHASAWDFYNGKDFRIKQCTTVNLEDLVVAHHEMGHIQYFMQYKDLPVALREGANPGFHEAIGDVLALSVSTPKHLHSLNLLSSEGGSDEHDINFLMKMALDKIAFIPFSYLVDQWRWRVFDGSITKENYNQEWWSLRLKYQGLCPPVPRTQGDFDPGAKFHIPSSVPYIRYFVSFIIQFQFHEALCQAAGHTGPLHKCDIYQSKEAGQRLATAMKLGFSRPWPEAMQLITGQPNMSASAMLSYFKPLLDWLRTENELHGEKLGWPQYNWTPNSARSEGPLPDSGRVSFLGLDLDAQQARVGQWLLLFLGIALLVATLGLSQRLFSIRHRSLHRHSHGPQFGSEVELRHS
Test: Inhibition of Angiotensin I Converting Enzyme (ACE), HHL substrate, hippuric acid colorimetry (modified Cushman method)
Type: biochemical
Details: Concentration 10 μM, 37°C for one hour, pH 8.3, read-out: Inhibitory Activity on ACE (%)
Counter-ions that a name gives are not always drawn.

>  <compound>
CCOC(=O)C(CCc1ccccc1)N[C@@H](C)C(=O)N(CC(=O)O)C1CCCC1.Cl (stereo partly drawn) [Example 1, hydrochloride]

>  <inhibition at 10 µM>
96%

$$$$
>  <compound>
CCOC(=O)C(CCc1ccccc1)NC(C)C(=O)N(CC(=O)O)C1CC2CCC1C2 (stereo not drawn) [Example 17, hydrobromide]

>  <inhibition at 10 µM>
99%

$$$$
>  <compound>
CCOC(=O)C(CCc1ccccc1)N[C@@H](C)C(=O)N(CC(=O)O)C1CCCCC1.Cl (stereo partly drawn) [Example 2, hydrochloride]

>  <inhibition at 10 µM>
90%

$$$$
>  <compound>
CCCCOC(=O)C(CCc1ccccc1)N[C@@H](C)C(=O)N(CC(=O)O)C1CCCCCC1 (stereo partly drawn) [Example 7, hydrochloride]

>  <inhibition at 10 µM>
98%

$$$$
>  <compound>
C[C@H](NC(CCc1ccccc1)C(=O)O)C(=O)N(CC(=O)O)C1CCCC1 (stereo partly drawn)

>  <inhibition at 10 µM>
100%

$$$$
>  <compound>
CCOC(=O)C(CCc1ccccc1)N[C@@H](C)C(=O)N(CC(=O)O)C1C2CC3CC(C2)CC1C3 (stereo partly drawn) [Example 19, hydrobromide]

>  <inhibition at 10 µM>
93%

$$$$
